Test: in vitro
Settings: rat, not told, Surrogate activity-based Plasma stability t½
Where a SMILES comes first, the peptide text is derived from it. Bridges are numbered along the chain shown (N, C = ends). [ ]: non-standard residue; d: D form. The star is where a group is joined. Palmitoyl = CCCCCCCCCCCCCCCC(=O)*; Myristoyl = CCCCCCCCCCCCCC(=O)*; pGlu = O=C1CC[C@@H](C(=O)O)N1; NHPhenethyl = c1ccc(CCN*)cc1; Nle = CCCC[C@H](N)C(=O)O
Attribute Measured: half-life (h)
Kindly provide the numeric value in h only, without the unit symbol.

Molecule	Value Unit	Value
CCCCCCCCCCCCCCCC(=O)NCCCC[C@H](NC(=O)[C@@H]1CSSC[C@H](NC(=O)[C@H](CC(C)C)NC(=O)[C@H](CCCNC(=N)N)NC(=O)[C@@H]2CCCN2C(=O)[C@H](CCCNC(=N)N)NC(=O)[C@@H]2CCC(=O)N2)C(=O)N[C@@H](Cc2c[nH]cn2)C(=O)N[C@@H](CCCCN)C(=O)NCC(=O)N2CCC[C@H]2C(=O)N[C@@H](CCCC)C(=O)N1)C(=O)O [Example 22] ([pGlu]RPRLCHKGP[Nle]CK(Palmitoyl)-OH; disulfide 6-12)	h	13.3
CCCCCCCCCCCCCC(=O)NCCCC[C@@H]1NC(=O)[C@H](Cc2c[nH]cn2)NC(=O)[C@@H](NC(=O)[C@H](CC(C)C)NC(=O)[C@H](CCCNC(=N)N)NC(=O)[C@@H]2CCCN2C(=O)[C@H](CCCNC(=N)N)NC(=O)[C@@H]2CCC(=O)N2)CSSC[C@@H](C(=O)N[C@@H](Cc2ccccc2)C(=O)O)NC(=O)[C@H](CCCC)NC(=O)[C@@H]2CCCN2C(=O)CNC1=O [Example 61] ([pGlu]RPRLCHK(Myristoyl)GP[Nle]CF-OH; disulfide 6-12)	h	4.33
CCCC[C@@H]1NC(=O)[C@@H]2CCCN2C(=O)CNC(=O)[C@H](CCCCN)NC(=O)[C@H](Cc2ccccc2)NC(=O)[C@@H](NC(=O)[C@H](CC(C)C)NC(=O)[C@H](CCCNC(=N)N)NC(=O)[C@@H]2CCCN2C(=O)[C@H](CCCNC(=N)N)NC(=O)[C@@H]2CCC(=O)N2)CCCCNC(=O)[C@H](Cc2ccccc2)NC1=O [Example 5, pE-R-P-R-L-K-F-K-G-P-Nle-F] ([pGlu]RPRLKFKGP[Nle]F; lactam 6-C)	h	2.1

Then there is this molecule:
Q: Tell me half-life reported for CCCC[C@@H]1NC(=O)[C@@H]2CCCN2C(=O)CNC(=O)[C@H](Cc2ccccc2)NC(=O)[C@H](Cc2c[nH]cn2)NC(=O)[C@@H](NC(=O)[C@H](CC(C)C)NC(=O)[C@H](CCCNC(=N)N)NC(=O)[C@@H]2CCCN2C(=O)[C@H](CCCNC(=N)N)NC(=O)[C@@H]2CCC(=O)N2)CCCCNC(=O)C[C@@H](C(=O)NCCc2ccccc2)NC1=O [Example 1] ([pGlu]RPRLKHFGP[Nle]D-NHPhenethyl; lactam 6-12)
A: 0.512

----------
Experiment: in vitro
Conditions: rat, not told, Surrogate activity-based Plasma stability t½
Where a SMILES comes first, the peptide text is derived from it. Bridges are numbered along the chain shown (N, C = ends). [ ]: non-standard residue; d: D form. The star is where a group is joined. pGlu = O=C1CC[C@@H](C(=O)O)N1; Lauroyl = CCCCCCCCCCCC(=O)*; d(hCys) = N[C@H](CCS)C(=O)O; Nle = CCCC[C@H](N)C(=O)O; AEEA = NCCOCCOCC(=O)O
Attribute Measured: half-life

In the examples that follow, each entry is paired with its recorded half-life.
Compound	half-life
CCCCCCCCCCCC(=O)NCCOCCOCC(=O)N[C@@H](CCC(N)=O)C(=O)N[C@@H](CCCNC(=N)N)C(=O)N1CCC[C@H]1C(=O)N[C@@H](CCCNC(=N)N)C(=O)N[C@@H](CC(C)C)C(=O)N[C@H]1CSSC[C@@H](C(=O)N[C@@H](Cc2ccccc2)C(=O)O)NC(=O)[C@H](CCCC)NC(=O)[C@@H]2CCCN2C(=O)CNC(=O)[C@H](CCCCN)NC(=O)[C@H](Cc2c[nH]cn2)NC1=O [Example 25] ({Lauroyl-AEEA}-QRPRLCHKGP[Nle]CF-OH; disulfide 6-12)	> 16.7 h
CCCC[C@@H]1NC(=O)[C@@H]2CCCN2C(=O)CNC(=O)[C@H](CCCCN)NC(=O)[C@H](Cc2c[nH]cn2)NC(=O)[C@@H](NC(=O)[C@H](CC(C)C)NC(=O)[C@H](CCCNC(=N)N)NC(=O)[C@@H]2CCCN2C(=O)[C@H](CCCNC(=N)N)NC(=O)[C@@H]2CCC(=O)N2)CSSC[C@@H](C(=O)O)NC1=O [Example 50, pE-R-P-R-L-C-H-K-G-P-Nle-C-OH] ([pGlu]RPRLCHKGP[Nle]C-OH; disulfide 6-12)	> 16.7 h

Then there is this compound:
Q: Tell me half-life reported for CCCC[C@@H]1NC(=O)[C@@H]2CCCN2C(=O)CNC(=O)[C@H](CCCCN)NC(=O)[C@H](Cc2c[nH]cn2)NC(=O)[C@H](NC(=O)[C@H](CC(C)C)NC(=O)[C@H](CCCNC(=N)N)NC(=O)[C@@H]2CCCN2C(=O)[C@H](CCCNC(=N)N)NC(=O)[C@@H]2CCC(=O)N2)CCSSCC[C@H](C(=O)N[C@@H](Cc2ccccc2)C(=O)O)NC1=O [Example 55] ([pGlu]RPRL[d(hCys)]HKGP[Nle][d(hCys)]F-OH; disulfide 6-12)
A: > 16.7 h
